Tested on: ADR-RES
protocol-notes: Cytotoxicity assay (cell titer-glo and calcein AM), ADR-RES
assay-conditions: read-out: Cytotoxicity IC50, NCI/ADR RES, CTG; NCI/ADR RES; CTG (cell titer-glo) readout; % error in parentheses
test-readout: IC50 (µM)
Use µM as the unit, but write only the number.

Use the examples below as a reference point.
molecule: COc1cc2c(c(OC)c1OC)-c1ccc(OC)c(=O)cc1C(NC(=O)CN(OC)C1OCC(O)C(O)C1O)CC2 [Col25, L-arabinoside]
data-value: 5.14
//
molecule: COc1cc2c(c(OC)c1OC)-c1ccc(OC)c(=O)cc1C(NC(=O)CN(OC)C1OCC(O)C(O)C1O)CC2 [Col20, D-arabinoside]
data-value: 7.85
//
molecule: COc1cc2c(c(OC)c1OC)-c1ccc(OC)c(=O)cc1[C@@H](NC(=O)CN(OC)[C@@H]1O[C@H](CCl)[C@H](O)[C@H](O)[C@H]1O)CC2 [Col41, 6-deoxy-6-chloro-D-galactoside]
data-value: 4.97
//
molecule: COc1cc2c(c(OC)c1OC)-c1ccc(OC)c(=O)cc1[C@@H](NC(=O)CN(OC)[C@@H]1OC[C@@H](O)[C@@H](O)[C@H]1O)CC2 [Col5, D-riboside]
data-value: 4.84
//
molecule: COc1cc2c(c(OC)c1OC)-c1ccc(OC)c(=O)cc1C(NC(=O)CN(OC)C1CC(O)C(O)C(C)O1)CC2 [Col65, D-Digitoxoside]
data-value: 0.893

Entry COc1cc2c(c(OC)c1OC)-c1ccc(OC)c(=O)cc1[C@@H](NC(=O)CN(OC)[C@@H]1O[C@H](CBr)[C@H](O)[C@H](O)[C@H]1O)CC2 [Col42, 6-deoxy-6-bromo-D-galactoside] has what IC50? 2.49

Entry COc1cc2c(c(OC)c1OC)-c1ccc(OC)c(=O)cc1[C@@H](NC(C)=O)CC2 [colchin] has what IC50? 0.018
